# Assay Remarks: Aqueous solubility of the compound in phosphate buffer at pH 5.5 after 24 hrs by HPLC analysis
# Assay type: physicochemical
Item-by-item account of solubility at 24 h
Numeric only. Scale: mM

Look at this molecule and give its reported solubility at 24 h. Cc1cccc2nccc(NCCCNCCCNc3ccnc4cccc(C)c34)c12 27.9

----------
# Assay Remarks: physchem
# Condition Details: octanol/phosphate buffered saline
# Description: Octanol-phosphate buffered saline distribution coefficient, log D of the compound at 2 mg after 48 hrs by HPLC analysis
Item-by-item account of logD at 48 h
Number, no unit, nothing else.

# example entries with known answers
[
  {
    "Given Smiles": "Cc1cccc2nccc(NCCCNCCNc3ccnc4cccc(C)c34)c12",
    "Measurement": 0.32
  },
  {
    "Given Smiles": "CN(CCCNc1ccnc2cc(Cl)ccc12)CCCNc1ccnc2cc(Cl)ccc12",
    "Measurement": 0.29
  },
  {
    "Given Smiles": "c1ccc2c(c1)nc(NCCNCCNCCNc1nc3ccccc3n3cccc13)c1cccn12",
    "Measurement": -0.02
  },
  {
    "Given Smiles": "c1ccc2c(c1)nc(NCCCNCCCNc1nc3ccccc3n3cccc13)c1cccn12",
    "Measurement": 0.32
  },
  {
    "Given Smiles": "Cc1cccc2nccc(NCCNCCNCCNc3ccnc4cccc(C)c34)c12",
    "Measurement": 0.4
  },
  {
    "Given Smiles": "CN(CCCNc1nc2ccccc2n2cccc12)CCCNc1nc2ccccc2n2cccc12",
    "Measurement": 0.36
  },
  {
    "Given Smiles": "Cc1cccc2nccc(NCCNCCNc3ccnc4cccc(C)c34)c12",
    "Measurement": 0.05
  },
  {
    "Given Smiles": "c1ccc2c(c1)nc(NCCCNCCNc1nc3ccccc3n3cccc13)c1cccn12",
    "Measurement": 0.34
  },
  {
    "Given Smiles": "Cc1cccc2nccc(NCCCNCCCNc3ccnc4cccc(C)c34)c12",
    "Measurement": 0.14
  },
  {
    "Given Smiles": "Cc1cccc2nccc(NCCCN(C)CCCNc3ccnc4cccc(C)c34)c12",
    "Measurement": 0.16
  }
]

Look at this compound and give its reported logD at 48 h. Clc1ccc2c(NCCNCCNc3ccnc4cc(Cl)ccc34)ccnc2c1 0.3

And c1ccc2c(c1)nc(NCCNCCNc1nc3ccccc3n3cccc13)c1cccn12 ? 0.39

And Clc1ccc2c(NCCNCCNCCNc3ccnc4cc(Cl)ccc34)ccnc2c1 ? 0.28

And Clc1ccc2c(NCCCNCCCNc3ccnc4cc(Cl)ccc34)ccnc2c1 ? 0.28

And Clc1ccc2c(NCCCNCCNCCCNc3ccnc4cc(Cl)ccc34)ccnc2c1 ? 0.3

And Clc1ccc2c(NCCCNCCNc3ccnc4cc(Cl)ccc34)ccnc2c1 ? 0.3

And Cc1cccc2nccc(NCCCNCCNCCCNc3ccnc4cccc(C)c34)c12 ? 0.34
